Where do the numbers come from? From patent US12258354B2.

# TARGET_DESC: hAhR (Homo sapiens)
# Construct: Stably integrated DRE-luciferase cell lines were generated by transducing the both cell lines with Cignal XRE luciferase reporter; endogenous in cells; host or cells: HEPG2 DRE-Luc cells (only the XRE luciferase reporter was transduced)
# Sequence (P35869 11-848): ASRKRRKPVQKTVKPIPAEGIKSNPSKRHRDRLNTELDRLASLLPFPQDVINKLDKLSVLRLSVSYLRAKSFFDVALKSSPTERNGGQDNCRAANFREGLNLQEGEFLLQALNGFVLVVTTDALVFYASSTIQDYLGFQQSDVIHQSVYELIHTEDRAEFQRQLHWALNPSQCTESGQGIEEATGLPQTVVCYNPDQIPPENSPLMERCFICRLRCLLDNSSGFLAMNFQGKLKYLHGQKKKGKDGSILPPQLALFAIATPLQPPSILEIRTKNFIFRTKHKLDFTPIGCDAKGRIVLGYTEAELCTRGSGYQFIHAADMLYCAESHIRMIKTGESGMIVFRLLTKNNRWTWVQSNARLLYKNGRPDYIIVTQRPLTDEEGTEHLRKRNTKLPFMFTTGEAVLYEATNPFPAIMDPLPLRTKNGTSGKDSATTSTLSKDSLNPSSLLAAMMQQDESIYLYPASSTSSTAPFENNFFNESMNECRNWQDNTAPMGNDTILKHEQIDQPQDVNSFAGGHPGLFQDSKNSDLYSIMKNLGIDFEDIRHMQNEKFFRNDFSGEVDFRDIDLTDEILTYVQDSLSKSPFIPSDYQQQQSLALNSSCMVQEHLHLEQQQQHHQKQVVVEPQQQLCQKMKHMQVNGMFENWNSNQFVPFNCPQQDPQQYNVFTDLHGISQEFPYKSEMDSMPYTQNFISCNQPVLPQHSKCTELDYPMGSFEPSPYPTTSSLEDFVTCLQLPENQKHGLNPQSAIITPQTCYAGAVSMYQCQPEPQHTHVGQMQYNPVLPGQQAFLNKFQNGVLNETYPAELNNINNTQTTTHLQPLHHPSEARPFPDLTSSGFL
# EXPERIMENTAL_PROTOCOL: DRE-luciferase transcriptional reporter assay in HEPG2 DRE-Luc cells, TCDD-induced (antagonist mode)
# Type: cell-based
# REPORTED_CONDITIONS: relative IC50, 3 nM TCDD, 24-hour incubation, firefly luciferase readout
TEST_READOUT: IC50

Sample answers from the record:
• Cc1cc(N2CCn3ncc(C)c3C2=O)c(C)cc1-c1ccc2cc(C(F)(F)F)ccc2n1 = 1000 to 10000 nM
• Cc1cc(-c2ncc3cc(C(F)(F)F)ccc3n2)ccc1N1CCOc2cn(Cc3nnn[nH]3)nc2C1=O = 1000 to 10000 nM

Query: Note IC50 for the molecule shown: Cc1cc(-c2ncc3nc(C(F)(F)F)ccc3n2)ccc1N1CCOc2cn(C)nc2C1=O
Reply: < 200 nM

Query: Return value of IC50 for input Cc1cc(-c2ncc3cc(C(F)(F)F)ccc3n2)ccc1N1CCn2nc(CN3CCO[C@@H](C)C3)c(C)c2C1=O , no commentary.
Reply: < 200 nM
